This collection of values is drawn from patent US7973162B2.

Emax listing for selected compounds.
target: M3 muscarinic receptor (Homo sapiens, UniProt P20309); construct: expressed in transfected cells; host or cells: CHO (M3-CHO); assay: Functional mobilization of intracellular calcium (FLIPR), M3-CHO cells; format: cell-based; conditions: 100% efficacy = maximum response obtained with the Carbachol control
Sequence (P20309 whole entry): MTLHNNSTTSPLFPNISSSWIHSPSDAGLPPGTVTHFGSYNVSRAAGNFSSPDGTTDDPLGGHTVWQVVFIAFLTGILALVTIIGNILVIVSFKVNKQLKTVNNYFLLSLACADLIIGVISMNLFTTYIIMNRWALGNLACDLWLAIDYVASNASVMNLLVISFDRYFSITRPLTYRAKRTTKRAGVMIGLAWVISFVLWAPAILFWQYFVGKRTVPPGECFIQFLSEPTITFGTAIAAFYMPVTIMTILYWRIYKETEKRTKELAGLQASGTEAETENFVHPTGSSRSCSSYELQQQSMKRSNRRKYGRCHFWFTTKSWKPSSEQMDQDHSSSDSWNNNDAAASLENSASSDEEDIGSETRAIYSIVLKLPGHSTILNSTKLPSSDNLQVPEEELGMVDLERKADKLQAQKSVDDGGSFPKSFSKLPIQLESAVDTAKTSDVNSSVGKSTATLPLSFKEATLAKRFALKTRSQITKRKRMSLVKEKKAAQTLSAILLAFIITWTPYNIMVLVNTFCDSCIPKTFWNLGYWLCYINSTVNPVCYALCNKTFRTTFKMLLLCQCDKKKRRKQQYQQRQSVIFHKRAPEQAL

| compound | tgt | Emax |
| --- | --- | --- |
| c1ccc2c(c1)C1OCCC1CC21CCN(C2C[C@H]3CC[C@@H]2C3)CC1 (stereo partly shown) [Compound 6] | M3 muscarinic receptor (Homo sapiens, UniProt P20309) | < 25% |
| CCOC(=O)N1CCC(N2CCC3(CC2)CC2CC(=O)OC2c2ccccc23)CC1 (stereo not shown) [Compound 4] | M3 muscarinic receptor (Homo sapiens, UniProt P20309) | 25 to 100% |
| CCOC(=O)N1CCC(N2CCC3(CC2)C[C@H]2CC(=O)N(CCOC)[C@H]2c2ccccc23)CC1 [Compound 1] | M3 muscarinic receptor (Homo sapiens, UniProt P20309) | < 25% |
| CN1C(=O)C[C@@H]2CC3(CCN(C4CC5CCC(C5)C4)CC3)c3ccccc3[C@@H]21 (stereo partly shown) [Compound 15] | M3 muscarinic receptor (Homo sapiens, UniProt P20309) | < 25% |
| O=C1CC2CC3(CCN(CC4CCCCC4)CC3)c3ccccc3C2O1 (stereo not shown) [Compound 18] | M3 muscarinic receptor (Homo sapiens, UniProt P20309) | < 25% |

Request the reported Emax associated with CCOC(=O)N1CCC(N2CCC3(CC2)C[C@H]2CC(=O)N[C@H]2c2ccccc23)CC1 [Compound 9]
25 to 100%

Request the reported Emax associated with CCOC(=O)N1CCC(N2CCC3(CC2)CC2CCOC2c2ccccc23)CC1 (stereo not shown) [Compound 2]
< 25%

Request the reported Emax associated with COCCN1C(=O)C[C@@H]2CC3(CCN(C4CCCCC4)CC3)c3ccccc3[C@@H]21 [Compound 16]
< 25%

Request the reported Emax associated with O=C1C[C@@H]2CC3(CCN(C[C@@H]4C[C@H]5C=C[C@H]4C5)CC3)c3ccccc3[C@@H]2N1 [Compound 25]
25 to 100%

Request the reported Emax associated with c1ccc2c(c1)C1OCCC1CC21CCN(C2CCCCC2)CC1 (stereo not shown) [Compound 26]
< 25%
